Value source: the OligoGym collection

# testedTarget: HIST1H2BN
# assayName: pooled miR-30 sensor sort-seq; sequence = guide strand; note: reference of the scale not given here
# conditions: shRNA
For each of the sequences below, state its sensor-assay potency score (higher = more potent).

Request: Reported sensor-assay potency score (higher = more potent) for TCACTGCCTTCTTGGAGCCTTT : what is it?
Result: -1.34

Request: What do you get for TTGTACACGTACACGGAGTAGC ?
Result: -0.485

Request: What about TTTGTCACTGCCTTCTTGGAGC ?
Result: -0.47

Request: Field entry: TCGAAGATGTCATTGACGAAGG
Result: -1.38

Request: And then TCTTCTGGGCCTTTGTCACTGC , what is it?
Result: -0.0714

Request: What would you report for TTCTTCTGGGCCTTTGTCACTG ?
Result: -0.654

Request: And then TTGGAGCCTTTCTTCGGGGCAG , what is it?
Result: -0.909

Request: Now the same for TTCTGGGCCTTTGTCACTGCCT
Result: -1.05

Request: Next record, please: TTGGACGAGATACCGGTGTCGG
Result: -1.16

Request: TTGCCGTCCTTCTTCTGGGCCT ?
Result: -0.777

* * *

# testedTarget: ZDHHC6
# assayName: pooled miR-30 sensor sort-seq; sequence = guide strand
# conditions: shRNA
Give measured sensor-assay potency score (higher = more potent) for each item. Keep answers brief.
The answer should be a number; do not append a unit.

Request: So what's the measured sensor-assay potency score (higher = more potent) for this one? TTTTCTAGGGAACCAACCCCTT
Result: -1.12

Request: Please answer likewise for TGAAATTCACACTTCCTCCAGT
Result: -0.0351

Request: Then TATTCTTGAAACACCTTCTATA ?
Result: -0.715

Request: Do the same for TTTGTCTCCATATAACCAGTAT please
Result: -0.758

Request: Check ATTTTGTCTCCATATAACCAGT too.
Result: -1.42

Request: Same again, this time with TTCTGCAGTGATGTGAACGTGG
Result: 0.312

Request: Entry to check: TCTTCTATTACTTTATAGCGAA
Result: -0.958

* * *

# testedTarget: METTL21D
# assayName: pooled miR-30 sensor sort-seq; sequence = guide strand
# conditions: shRNA
experimentalEndpoint: sensor-assay potency score (higher = more potent)
# respond with the number and nothing more

Request: Item TTTAAGAAGAACTTGATGCTGA with METTL21D - sensor-assay potency score (higher = more potent)?
Result: 0.983

Request: // query: TATAGAACTACATTTGTAGTTA
Result: 0.621

Request: Queued: TGAACTAAGTAACCTAAGCTGG
Result: -0.584

Request: TATACTGCTGTAGTCGTAGCAC ?
Result: 0.182

Request: Same lookup for TTGTAGTTATTCAAAAACCTTT , please.
Result: -1.15

Request: Can you check TTAAACTCTGAAGACAAACTAA next?
Result: -0.429

* * *

# testedTarget: SMYD3
# assayName: pooled miR-30 sensor sort-seq; sequence = guide strand
# conditions: shRNA
experimentalEndpoint: sensor-assay potency score (higher = more potent)
// response body must contain only the number

Request: Query sensor-assay potency score (higher = more potent) on SMYD3 for TTTACCTACACAAACACGGAAC
Result: -0.662

Request: Lookup TTGAACACAATCGAACAGTTGG
Result: 0.615

Request: Same question for TAATATTTGACTCCAGATCATA please.
Result: -1.27

Request: Similarly, TTTGTTAATATTTGACTCCAGA ?
Result: -0.278

* * *

# testedTarget: MAPKAPK5
# assayName: pooled miR-30 sensor sort-seq; sequence = guide strand
# conditions: shRNA
Kindly state sensor-assay potency score (higher = more potent) for each of the entries shown.

Request: Give the measured sensor-assay potency score (higher = more potent) of TTCAATAATCTGAACTATGTTT .
Result: -0.32

Request: TAACTGGACCACTAATTCCAGC ?
Result: -1.31

Request: And the next one, TTTACACAGACTCTAACTGGAC ?
Result: -0.371

Request: Now try TATCTGTGAATCCACGACCATT .
Result: -1.59

Request: Repeat for the following sequence: ATAATCTGAACTATGTTTGGGT
Result: 0.519

Request: And for TTAGTCGATCTACTTTATCTGT ?
Result: -0.383

Request: Same for TTTCTTCGCATATCCTTTGGGA
Result: -0.249

Request: Same question, TATGATGCCAGATTTCTCCTTC this time
Result: 0.745

Request: Would you mind doing TAGTCGATCTACTTTATCTGTG as well?
Result: -0.684

Request: Queued: TATTCTTCTAAAATGGAAGTTT
Result: -0.731

Request: Also check TCTGACTCCACTCTTCCTCTGG
Result: 0.0951

* * *

Task for the reader: assign each of the following sequences its reported sensor-assay potency score (higher = more potent).
# testedTarget: CD1E
# assayName: pooled miR-30 sensor sort-seq; sequence = guide strand
# conditions: shRNA
Reply with just the number.

Request: sensor-assay potency score (higher = more potent) lookup needed for TAAGTTTTTCAGCTCCTGCTTG , thanks.
Result: -0.417

Request: Further, for TCTACAGCCAGCTAATATCTGG ?
Result: -0.694

Request: Similarly, TTCCACTTCTTCAATACTCTGT ?
Result: 0.573

Request: What do you have for TATTTAAGAAGATTTGTGGGGC ?
Result: 0.193

Request: Would you kindly repeat that for ATATCCACCATGTCTCGTCAGC ?
Result: -0.905

Request: Likewise for TTCCTTAATATCTAGGTAGCGA ?
Result: -0.491

Request: Same for TTTTTCAGCTCCTGCTTGCTGA
Result: -0.242

Request: Would you mind doing TAGACTGCTGTGTTTCACCCGA as well?
Result: -0.381

* * *

# testedTarget: KIR2DL5B
# assayName: pooled miR-30 sensor sort-seq; sequence = guide strand
# conditions: shRNA
experimentalEndpoint: sensor-assay potency score (higher = more potent)

Request: For the sequence TTGTACAGACTGAAGATGGTAA , what sensor-assay potency score (higher = more potent) is on record?
Result: -0.188

Request: Also need ACAAGCAGTGGGTCACTCGGGT , thanks.
Result: -0.672

Request: Likewise for TTGATCATCAGAGTCCTCCCTG ?
Result: 0.731

Request: Same again, this time with TACATGTCAAATGAGCTCCTGG
Result: -0.149

Request: Entry TTCTTTTTGTTGGAGCAGCAGC please
Result: -0.965

Request: Please answer likewise for TTGAAGAGTTTCCTGTGACAGA
Result: -0.517

Request: AACTACTTGAAGAGTTTCCTGT ?
Result: 0.126

* * *

Assignment: determine reported sensor-assay potency score (higher = more potent) for the given sequences.
# testedTarget: COL16A1
# assayName: pooled miR-30 sensor sort-seq; sequence = guide strand
# conditions: shRNA
Hey, just send me the number, nothing else.

Request: Give the reported sensor-assay potency score (higher = more potent) for TAGACCTTGCCTTCAGACTGTG (system: COL16A1).
Result: 0.244

Request: TTAATGATCTCTTGTCTGATGA ?
Result: -0.576

Request: // same read-out, input: TGGTTTGCCACAGTCACCCTTA
Result: -0.19

Request: Another: TTGCGGATCTTCTTGATGGCAG
Result: -0.676

Request: Same again, this time with TGAACCTCTTGATTTCATCATA
Result: -1.14

Request: Param item: TTTAATGATCTCTTGTCTGATG
Result: -0.368

* * *

Exercise: state measured sensor-assay potency score (higher = more potent) for each of the sequences provided.
# testedTarget: C3orf33
# assayName: pooled miR-30 sensor sort-seq; sequence = guide strand
# conditions: shRNA

Request: Given the entry TACTCCAGCCAACTTAACCAGC , what sensor-assay potency score (higher = more potent) was observed with C3orf33?
Result: -1.6

Request: And TTGTTCATGTTGTCTTTCCATA ?
Result: -1.3

Request: Also need TAACTTTCTTTTTTCAAGCTGA , thanks.
Result: -0.0803

Request: Can you check TTCTTTTTCAGAGTCTTCCTTC next?
Result: 0.254

* * *

# testedTarget: ILDR2
# assayName: pooled miR-30 sensor sort-seq; sequence = guide strand
# conditions: shRNA
sensor-assay potency score (higher = more potent) of 0.1 or higher: Condition met. Under 0.1: Condition not met.

Request: Has TTCTCTTGCTGAGAGATTGGGC a recorded sensor-assay potency score (higher = more potent) greater than or equal to 0.1?
Result: Condition not met

Request: Another sequence: TGAACTTCCACTGCACAACTGC
Result: Condition not met

Request: And what about the sequence TACTACTCGAACAGTCCTCCTG ?
Result: Condition met

Request: Also TTGAAGCTACTACTCGAACAGT ?
Result: Condition not met

Request: Next: TTGTCGGGCACTGTGACCTGAA
Result: Condition not met

Request: Would you mind doing TAGTACAGGACCTTCATGGAGT as well?
Result: Condition met

Request: Moving on to the next sequence: TACAGTAATAGAGTCCGCTGTC
Result: Condition met
